System: NCI-H460 lung
experiment-summary: NCI-60 one-dose screen, 48 h
condition-summary: 10 µM unless noted
Method: Growth inhibition of the NCI-H460 human Non-Small Cell Lung tumor cell line is measured as a screen for anti-cancer activity. Cells are grown in 96 well plates and exposed to the test compound for 48 hours. Compounds are tested at a single concentration, which is 10^-5 M for most compounds. The reported endpoint is percent growth (GI% or GIPRCNT), where numbers from 0 - 100% represent growth inhibition, and numbers from -100% - 0 represent cell death. […]
Compounds without any hit were thinned out: in the full panel of roughly 83,000, 20% have a hit. The source made the active and inactive calls. The calls were made as follows: active = growth percent below 10; inactive = the rest.
Outcome codes: yes (1) (active), no (0) (inactive)

compound | assay-system | label
N#Cc1cnc(NCCc2ccncc2)nc1-n1cnc2ccccc21 | NCI-H460 lung | no (0)
Cc1ccc(-c2nc3nc(-c4ccc(F)cc4)nc(N4CCNCC4)c3o2)cc1 | NCI-H460 lung | yes (1)
O=S(=O)(Nc1ccc(Cl)cc1)c1ccc(-c2cnc(C3CC3)o2)cc1 | NCI-H460 lung | yes (1)
CC(=O)N1N=C(c2ccc(Nc3nc(Nc4ccc(Cl)cc4)nc(Nc4ccc(Cl)cc4)n3)cc2)CC1c1ccco1 (configuration not stated) | NCI-H460 lung | no (0)
COc1ccc2c3c([nH]c2c1)C(=O)c1nc(C)ccc1C3=O | NCI-H460 lung | yes (1)
O=C(/C=C/c1cn(-c2ccccc2)nc1-c1ccc([N+](=O)[O-])cc1)c1ccc(Cl)cc1 | NCI-H460 lung | no (0)
CCOC(=O)C(=Cc1cccc(Br)c1)C(=O)OCC | NCI-H460 lung | no (0)
O=C(NCc1ccccc1)Nc1ccccc1CNc1nc(Nc2ccc(OCCN3CCCC3)cc2)ncc1Cl | NCI-H460 lung | no (0)
C#CCn1cnc2c(Nc3cccc(NC(=O)C=C)c3)ncnc21 | NCI-H460 lung | no (0)
COc1ccc(N2CCC(=O)NC2=S)cc1 | NCI-H460 lung | no (0)
C=CCn1cc(-c2nc3ccccc3s2)c2cc(-c3ccc4c5c(cccc35)C(=O)N(N)C4=O)ccc21 | NCI-H460 lung | no (0)
Cc1ccc(NC(=S)NNC(=S)NNc2ccccc2)cc1C | NCI-H460 lung | no (0)
C=C(CNCCc1ccc(O)cc1)[C@@H]1CC[C@]2(CO)CC[C@]3(C)[C@H](CC[C@@H]4[C@@]5(C)CCC(NCCO)C(C)(C)[C@@H]5CC[C@]43C)[C@@H]12 (some centres not stated) | NCI-H460 lung | yes (1)
C/C(Nc1ccc(Cl)c(Cl)c1)=C1\CCOC1=O | NCI-H460 lung | no (0)
COc1cc(N2C(=O)[C@H](O)C2c2ccc(SC)cc2)cc(OC)c1OC (some centres not stated) | NCI-H460 lung | yes (1)
C=C(C)[C@@H]1CC[C@]2(C)[C@H](CC=C3[C@@H]4[C@H](C)[C@@H](C)CC[C@]4(CO)CC[C@]32C)[C@@]1(C)CCCN | NCI-H460 lung | yes (1)
C=C(C)[C@@H]1CC[C@]2(C(=O)O)CC[C@]3(C)[C@H](CC[C@@H]4[C@@]5(C)C[C@@H](Cc6cn(CCO[C@@H]7O[C@H](COC(C)=O)[C@H](OC(C)=O)[C@H](OC(C)=O)[C@H]7OC(C)=O)nn6)[C@H](O)C(C)(C)[C@@H]5CC[C@]43C)[C@@H]12 | NCI-H460 lung | no (0)
N#C/C(=C\c1ccc(Br)cc1)n1nnc2ccc(F)cc21 | NCI-H460 lung | yes (1)
CCOc1nc(-c2ccccc2)cc2c(O)c(C(=O)NN)[nH]c(=O)c12 | NCI-H460 lung | no (0)
O=C(Cn1c(=O)sc2ccccc21)NNS(=O)(=O)c1ccccc1[N+](=O)[O-] | NCI-H460 lung | no (0)
CC1(C)CCC(S(=O)(=O)c2ccc3c(c2)/C(=N\O)c2cc(S(=O)(=O)N4CCC(O)(c5cccc(C(F)(F)F)c5)CC4)ccc2-3)CC1 | NCI-H460 lung | yes (1)
Cc1cc(Cl)ccc1Nc1nc(C(F)(F)F)ccc1C(=O)N/N=C/c1ccc([N+](=O)[O-])cc1 | NCI-H460 lung | yes (1)
C[C@@H]1CCC[C@H]1CC(N)C(=O)O (some centres not stated) | NCI-H460 lung | no (0)
Cc1ccc(-c2csc(NC(=O)CN3CCN(c4cc5c(cc4F)c(=O)c(C(=O)O)cn5C4CC4)CC3)n2)cc1 | NCI-H460 lung | no (0)
COc1ccc2cc(-c3ccc(NC(C)=O)c(=O)o3)ccc2c1 | NCI-H460 lung | no (0)
O=Cc1ccc([N+](=O)[O-])s1 | NCI-H460 lung | no (0)
CCN(CC)c1ccc(/C=C/C(=O)c2ccc(Nc3nc(Nc4ccccc4)nc(Nc4ccccc4)n3)cc2)cc1 | NCI-H460 lung | no (0)
OB(O)c1cccc(-c2nc3ccc4[nH]ncc4c3c3c2CCCC3)c1 | NCI-H460 lung | no (0)
CCOc1ccc(NC(=O)CSc2oc(-c3ccccc3)nc2S(=O)(=O)c2ccc(F)cc2)cc1 | NCI-H460 lung | no (0)
CN1CCN(C(=O)c2ccc(NC(=O)Nc3ccc(-c4nc(N5CCOCC5)c5cccn5n4)cc3)cc2)CC1 | NCI-H460 lung | yes (1)
C/C(=N\NC(=O)c1ccccc1O)c1cccc(/C(C)=N/NC(=O)c2ccccc2O)n1 | NCI-H460 lung | no (0)
Cn1c(O)c(C=NCCN=Cc2c(O)n(C)c(=O)n(C)c2=O)c(=O)n(C)c1=O | NCI-H460 lung | no (0)
N=C(N)c1ccc(-c2ccc(-c3cc(Cl)cc(Cl)c3)o2)o1 | NCI-H460 lung | yes (1)
COC(=O)c1n[nH]c2ccc3nc(-c4cn[nH]c4C(F)(F)F)c4c(c3c12)CCCC4 | NCI-H460 lung | no (0)
Oc1c(Cl)cc(Cl)c2ccc(Cn3cc(-c4ccc(C(F)(F)F)cc4)nn3)nc12 | NCI-H460 lung | no (0)
COc1cc(OC)cc(C2=C3CC[C@@H]4[C@H](CC[C@]5(C)C(=O)CC[C@@H]45)C3=CC3C(O)c4cccnc4N4C(=O)COC234)c1 (some centres not stated) | NCI-H460 lung | no (0)
O=C(NNc1nccc(Nc2ccc(S(=O)(=O)Nc3ccncc3)cc2)n1)c1ccccc1 | NCI-H460 lung | no (0)
